Experimental Setup: in ethanol, 313.45 K
Attribute Measured: solubility (mole fraction)
# respond with the number and nothing more

Look up solubility (mole fraction) for this compound: O=C(O)[C@@H]1Cc2ccccc2N1
0.00721

====

Experimental Setup: in methanol, 333.15 K
Attribute Measured: solubility (mole fraction)

Look up solubility (mole fraction) for this compound: O=C(O)[C@@H]1Cc2ccccc2N1
0.026

====

Experimental Setup: in n-butanol, 353.05 K
Attribute Measured: solubility (mole fraction)

Look up solubility (mole fraction) for this compound: O=C(O)[C@@H]1Cc2ccccc2N1
0.0237

====

Experimental Setup: in n-propanol, 338.15 K
Attribute Measured: solubility (mole fraction)
# respond with the number and nothing more

Look up solubility (mole fraction) for this molecule: O=C(O)[C@@H]1Cc2ccccc2N1
0.0167

The reported measurements were obtained from BigSolDB 2.1.
